These measurements were taken from the supplement of paper PMC10567573.

B1: VAMP4 (parent)
chain: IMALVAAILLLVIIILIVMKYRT

- Variants of: B1
- testDetails: protein stability index of a GFP-peptide fusion (GPS, HEK-293T) (PSI 1-6); higher = more stable;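 also: lentivirally expressed fusions sorted by FACS into six bins by GFP to DsRed ratio, PSI derived from sequencing read proportions per bin multiplied by bin number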
- conditionContext: c terminus: native
protein stability index for assorted variants
testReadout: protein stability index

1) IMALVAAILLLVIIILIVMLYRT [K20L] :: 2.93
2) IMALVQAILLLVIIILIVMKYRT [A6Q] :: 2.37
3) IMALVAAILLLVIIILIVMKYST [R22S] :: 3.82
4) IMFLVAAILLLVIIILIVMKYRT [A3F] :: 3.55
5) PMALVAAILLLVIIILIVMKYRT [I1P] :: 3.56
6) IMALVAAIALLVIIILIVMKYRT [L9A] :: 2.92
7) IMALVAAILLLVPIILIVMKYRT [I13P] :: 2.66
8) IMALVAAILLSVIIILIVMKYRT [L11S] :: 3.39
9) IMALVAAILLLVIIILIEMKYRT [V18E] :: 2.91
10) IMALVAAILLLVIIIRIVMKYRT [L16R] :: 2.33
11) IMALVAAILLLVIIILIVMKYRE [T23E] :: 2.74
12) IMALVAAILLLVFIILIVMKYRT [I13F] :: 3.46
13) IMALVAAIWLLVIIILIVMKYRT [L9W] :: 2.76
14) IMALVNAILLLVIIILIVMKYRT [A6N] :: 2.1
15) IMALVAAILLLVIIILIVMPYRT [K20P] :: 2.62
16) IMALVAAILLLVIIILSVMKYRT [I17S] :: 3.07
17) IMALVAAILLLVIQILIVMKYRT [I14Q] :: 2.23
18) IMALVAAILVLVIIILIVMKYRT [L10V] :: 3.53
